System Under Test: UniProt P56730
Sequence (P56730 21-875): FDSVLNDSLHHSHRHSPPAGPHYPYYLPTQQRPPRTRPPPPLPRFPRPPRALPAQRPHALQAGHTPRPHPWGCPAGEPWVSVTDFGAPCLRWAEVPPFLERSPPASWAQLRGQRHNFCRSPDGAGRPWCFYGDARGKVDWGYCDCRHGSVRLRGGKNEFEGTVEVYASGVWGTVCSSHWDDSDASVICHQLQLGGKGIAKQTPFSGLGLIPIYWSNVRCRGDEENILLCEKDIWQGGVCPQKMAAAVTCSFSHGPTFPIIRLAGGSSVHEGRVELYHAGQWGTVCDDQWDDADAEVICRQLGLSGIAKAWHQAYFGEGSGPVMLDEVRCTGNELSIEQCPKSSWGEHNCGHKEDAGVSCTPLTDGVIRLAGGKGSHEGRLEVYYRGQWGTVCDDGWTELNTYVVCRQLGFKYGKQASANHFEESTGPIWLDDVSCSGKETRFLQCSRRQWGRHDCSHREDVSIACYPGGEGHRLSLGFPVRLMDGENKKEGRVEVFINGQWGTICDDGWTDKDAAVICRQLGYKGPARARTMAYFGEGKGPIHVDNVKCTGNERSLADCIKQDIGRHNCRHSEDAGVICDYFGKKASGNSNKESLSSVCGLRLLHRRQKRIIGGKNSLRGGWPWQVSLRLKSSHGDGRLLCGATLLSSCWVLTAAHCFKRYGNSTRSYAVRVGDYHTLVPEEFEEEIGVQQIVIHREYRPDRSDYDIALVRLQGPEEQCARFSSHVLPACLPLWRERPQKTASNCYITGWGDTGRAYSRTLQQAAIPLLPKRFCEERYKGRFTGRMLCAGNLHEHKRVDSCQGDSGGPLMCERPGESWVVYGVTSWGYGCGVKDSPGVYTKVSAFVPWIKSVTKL
Run Description: Determination of IC50 for human neurotrypsin
Format: biochemical
Experimental Context: human neurotrypsin; method of WO 2006/1103261; read-out: Neurotrypsin IC50
pIC50: −log10 of the molar value.
Readout Type: pIC50

A selection of reference data follows.
compound=O=C(O)c1ccc(-c2cn(-c3ccc(Cl)cc3)nn2)cc1NC(=O)c1sc2ccccc2c1Cl readout_type=pIC50 reported=5.42
compound="O=C(O)c1ccc(C(=O)N2CCC(c3ccccc3)C2)cc1NC(=O)c1sc2ccccc2c1Cl (centres unmarked)" readout_type=pIC50 reported=5.39
compound="O=C(Nc1cc(N2CC(c3ccc(Cl)cc3)CC2=O)ccc1C(=O)O)c1ccc(-c2ccc(Cl)cc2)s1 (centres unmarked)" readout_type=pIC50 reported=5.47

a: O=C(Nc1ccc(Oc2cccnc2)cc1)c1ccc(C(=O)O)c(NC(=O)c2sc3ccccc3c2Cl)c1
b: O=C(Nc1ccc(C(=O)N2CCC(Cc3ccc(F)cc3)CC2)cc1C(=O)O)c1ccc(-c2nc3cc(Cl)c(Cl)cc3[nH]2)cc1
query: Compare a and b and name the one whose reported pIC50 is smaller. Lab note: record the label of whichever item you select.
result: a
(a: 5.32, b: 5.72)
